- Tested on: Rhynchosporium secalis
- ASSAY REMARKS: Fungicidal activity against Rhynchosporium secalis IFO-5290 assessed as mycelial growth inhibition at 25 mg/L after 14 days
- Format: functional
- APPLIED CONDITIONS: IFO-5290, 336 h, read-out: GI
MEASURED PARAMETER: inhibition of growth at 25 µg/mL (%)
Just the number please, in %, no unit attached.

# inhibition of growth at 25 µg/mL lookup, item "Cc1cc(=O)n(C(=O)/C=C/c2cccs2)o1"
100

"CC(=O)n1oc(C)cc1=O" ?
100

"Cc1cc(=O)n(C(=O)/C=C/c2ccsc2)o1" ?
100

"Cc1cc(=O)n(C(=O)c2ccccc2I)o1" ?
100

Cc1cc(=O)n(C(=O)C(C)c2ccccc2)o1 (centres undefined) ?
99

"Cc1cc(O)no1" ?
100

"Cc1cc(=O)n(C(=O)C#Cc2ccccc2)o1" ?
98

"CCCn1oc(C)cc1=O" ?
2

"COCC(=O)n1oc(C)cc1=O" ?
100

"Cc1cc(=O)n(C(=O)c2c(F)c(F)c(F)c(F)c2F)o1" ?
100

"Cc1cc(=O)n(C(=O)Cc2ccccc2)o1" ?
99

"CCn1oc(C)cc1=O" ?
13

"Cc1cc(=O)n(C(=O)C(C)(C)Oc2ccc(Cl)cc2)o1" ?
100

"Cc1cc(C)c(C(=O)n2oc(C)cc2=O)c(C)c1" ?
0

---

- Tested on: Pyrenophora graminea
- ASSAY REMARKS: Fungicidal activity against Pyrenophora graminea IFO-7507 assessed as mycelial growth inhibition at 25 mg/L after 3 days
- Type: functional
- APPLIED CONDITIONS: IFO-7507, 72 h, read-out: GI
Give measured inhibition of growth at 25 µg/mL for each item. Keep answers brief.
Just the number please, in %, no unit attached.

# inhibition of growth at 25 µg/mL lookup, item Cc1cc(O)no1 [HYMEXAZOL]
80

"Cc1cc(=O)n(C(=O)/C=C/c2ccsc2)o1" ?
97

"Cc1cc(=O)n(C(=O)/C=C/c2cccs2)o1" ?
89

"Cc1cc(=O)n(C(=O)/C=C/c2ccoc2)o1" ?
96

"Cc1cc(=O)n(C(=O)/C=C/c2ccccc2)o1" ?
90

"CSCCC(=O)n1oc(C)cc1=O" ?
76

"Cc1cc(=O)n(C(=O)C#Cc2ccccc2)o1" ?
73

"Cc1cc(=O)n(C(=O)c2ccccc2I)o1" ?
92

"COCC(=O)n1oc(C)cc1=O" ?
82

"CCCn1oc(C)cc1=O" ?
16

"Cc1cc(C)c(C(=O)n2oc(C)cc2=O)c(C)c1" ?
90

"CCn1oc(C)cc1=O" ?
6

"Cc1cc(=O)n(C(=O)CCCCC(=O)n2oc(C)cc2=O)o1" ?
91

"Cc1cc(=O)n(C(=O)Cc2ccccc2)o1" ?
71

"Cc1cc(=O)n(C(=O)CCl)o1" ?
89

---

- Test system: Rhizoctonia solani
- ASSAY REMARKS: Fungicidal activity against Rhizoctonia solani ET0007 assessed as mycelial growth inhibition at 25 mg/L after 1 day
- Type: functional
- APPLIED CONDITIONS: ET0007, 24 h, read-out: GI
Label scheme for inhibition of growth at 25 µg/mL: band 1 = under 20%, band 2 = from 20% up to 60%, band 3 = 60% and over

Form field 'band' for "Cc1cc(=O)n(C(=O)CCl)o1"
band 1

"Cc1cc(=O)n(C(=O)/C=C/c2ccccc2)o1" ?
band 3

Cc1cc(=O)n(C(=O)C2CCc3ccccc3C2)o1 (stereo not drawn) ?
band 2

"Cc1cc(=O)n(C(=O)C(C)(C)C)o1" ?
band 2

"Cc1cc(=O)n(C(=O)/C=C/c2ccsc2)o1" ?
band 3

"CCn1oc(C)cc1=O" ?
band 1

"Cc1cc(=O)n(C(=O)CCC(F)(F)F)o1" ?
band 2

"CCC(=O)n1oc(C)cc1=O" ?
band 2

"CSCCC(=O)n1oc(C)cc1=O" ?
band 3

"Cc1cc(=O)n(C(=O)/C=C/c2ccc(Cl)cc2)o1" ?
band 3

"Cc1cc(=O)n(C(=O)/C=C/c2cccs2)o1" ?
band 3

"Cc1cc(=O)n(C(=O)Cc2ccccc2)o1" ?
band 1

"Cc1cc(=O)n(Cc2ccccc2)o1" ?
band 1

"Cc1cc(=O)n(C(=O)C#Cc2ccccc2)o1" ?
band 1

"Cc1cc(=O)n(C(=O)c2c(F)c(F)c(F)c(F)c2F)o1" ?
band 1

"Cc1cc(=O)n(C(=O)/C=C/c2ccoc2)o1" ?
band 3

"Cc1cc(=O)n(C(=O)CC(C)(C)C)o1" ?
band 3

"CCCn1oc(C)cc1=O" ?
band 1

Cc1cc(=O)n(C(=O)C2(c3ccccc3)CC2(Cl)Cl)o1 (stereo not drawn) ?
band 2

"Cc1cc(=O)n(C(=O)c2ccccc2I)o1" ?
band 2

Cc1cc(=O)n(C(=O)C2(C)C(C)(C)C2(Cl)Cl)o1 (stereo not drawn) ?
band 2

"Cc1cc(=O)n(C(=O)CCCCC(=O)n2oc(C)cc2=O)o1" ?
band 1

"CC(=O)n1oc(C)cc1=O" ?
band 2

"Cc1cc(O)no1" ?
band 2

"COCC(=O)n1oc(C)cc1=O" ?
band 3

"Cc1cc(=O)n(C(=O)C(C)(C)Oc2ccc(Cl)cc2)o1" ?
band 1

"Cc1cc(C)c(C(=O)n2oc(C)cc2=O)c(C)c1" ?
band 1

---

Give measured inhibition of growth at 25 µg/mL for each item. Keep answers brief.
- Test system: Pyrenophora graminea
- ASSAY REMARKS: Fungicidal activity against Pyrenophora graminea IFO-7507 assessed as mycelial growth inhibition at 25 mg/L after 3 days
- Format: functional
- APPLIED CONDITIONS: IFO-7507, 72 h, read-out: GI
Just the number please, in %, no unit attached.

# inhibition of growth at 25 µg/mL lookup, item "Cc1cc(=O)n(Cc2ccccc2)o1"
46

Cc1cc(=O)n(C(=O)C(C)c2ccccc2)o1 (stereo not drawn) ?
74

Cc1cc(=O)n(C(=O)C2(C)C(C)(C)C2(Cl)Cl)o1 (stereo not drawn) ?
79

"Cc1cc(=O)n(C(=O)C(C)(C)C)o1" ?
95

"Cc1cc(=O)n(C(=O)c2c(F)c(F)c(F)c(F)c2F)o1" ?
87

"CC(=O)n1oc(C)cc1=O" ?
72

"Cc1cc(=O)n(C(=O)C(C)(C)Oc2ccc(Cl)cc2)o1" ?
81

"Cc1cc(=O)n(C(=O)/C=C/c2ccc(Cl)cc2)o1" ?
77

"CCC(=O)n1oc(C)cc1=O" ?
88

Cc1cc(=O)n(C(=O)C2CCc3ccccc3C2)o1 (stereo not drawn) ?
73

Cc1cc(=O)n(C(=O)C2(c3ccccc3)CC2(Cl)Cl)o1 (stereo not drawn) ?
89

"Cc1cc(=O)n(C(=O)CCC(F)(F)F)o1" ?
46

"Cc1cc(=O)n(C(=O)CC(C)(C)C)o1" ?
76

---

- Test system: Rhynchosporium secalis
- ASSAY REMARKS: Fungicidal activity against Rhynchosporium secalis IFO-5290 assessed as mycelial growth inhibition at 25 mg/L after 14 days
- Assay type: functional
- APPLIED CONDITIONS: IFO-5290, 336 h, read-out: GI
MEASURED PARAMETER: inhibition of growth at 25 µg/mL
Answer format: number, then unit.

# inhibition of growth at 25 µg/mL lookup, item "Cc1cc(=O)n(C(=O)CCl)o1"
100%

"Cc1cc(=O)n(Cc2ccccc2)o1" ?
0%

"Cc1cc(=O)n(C(=O)/C=C/c2ccccc2)o1" ?
100%

"CSCCC(=O)n1oc(C)cc1=O" ?
99%

"Cc1cc(=O)n(C(=O)CC(C)(C)C)o1" ?
96%

"Cc1cc(=O)n(C(=O)/C=C/c2ccc(Cl)cc2)o1" ?
100%

Cc1cc(=O)n(C(=O)C2(C)C(C)(C)C2(Cl)Cl)o1 (centres undefined) ?
87%

"Cc1cc(=O)n(C(=O)CCC(F)(F)F)o1" ?
98%

"Cc1cc(=O)n(C(=O)/C=C/c2ccoc2)o1" ?
100%

"Cc1cc(=O)n(C(=O)C(C)(C)C)o1" ?
100%

"CCC(=O)n1oc(C)cc1=O" ?
100%

Cc1cc(=O)n(C(=O)C2CCc3ccccc3C2)o1 (centres undefined) ?
100%

Cc1cc(=O)n(C(=O)C2(c3ccccc3)CC2(Cl)Cl)o1 (centres undefined) ?
99%

"Cc1cc(=O)n(C(=O)CCCCC(=O)n2oc(C)cc2=O)o1" ?
100%

Data credit: ChEMBL document CHEMBL3044528
